molecular target: G1 APOL1 (Homo sapiens, UniProt O14791, I384M/S342G); construct: expressed in transfected cells; assay: Acute APOL1 Thallium Assay with inducible stable clones of HEK 293 cells; type: cell-based; settings: HEK 293 T-Rex inducible stable clone expressing G1 APOL1; read-out: Thallium Assay (IC50)
Sequence (O14791 28-398 S342G/I384M): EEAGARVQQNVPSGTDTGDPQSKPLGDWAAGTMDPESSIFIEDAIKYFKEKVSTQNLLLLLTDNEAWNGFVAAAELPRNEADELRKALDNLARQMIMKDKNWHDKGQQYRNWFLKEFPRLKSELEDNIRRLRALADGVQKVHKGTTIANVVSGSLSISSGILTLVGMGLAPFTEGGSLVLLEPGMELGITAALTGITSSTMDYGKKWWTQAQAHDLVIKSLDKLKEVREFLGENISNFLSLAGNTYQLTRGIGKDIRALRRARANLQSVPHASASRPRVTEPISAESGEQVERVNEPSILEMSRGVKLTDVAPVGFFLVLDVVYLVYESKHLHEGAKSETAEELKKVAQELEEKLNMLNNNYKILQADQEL
IC50 for assorted molecules

CC1(C(=O)N[C@H]2C[C@H](c3c(-c4ccc(F)cc4)[nH]c4c(F)cc(F)cc43)C2)CCC(=O)NC1 (mixture of isomers) [Compound 97]	> 1000 nM

Lab note: next molecule to report on.
Input line: Requested field: IC50. Item: O=C(c1c[nH]cn1)N1CC(c2c(-c3ccc(F)cc3)[nH]c3c(F)cc(F)cc23)C1 [Compound 441]
Output line: 250 to 1000 nM

Origin of the recorded values: patent US12281102B2
